- Study target: T1, DFNB31_3, Q9P202
- T1 sequence (Q9P202 811-907, limits assumed, looked up): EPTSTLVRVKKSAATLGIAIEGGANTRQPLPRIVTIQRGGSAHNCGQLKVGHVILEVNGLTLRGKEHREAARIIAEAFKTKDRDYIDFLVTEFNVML
- Measurement notes: holdup assay
- Parameters: key: below the threshold = too weak to quantify, mostly under pKd 3.1 to 4
- Settings: plain residues with an end cap or a label only (N-terminal biotin on a linker: ado-ado)
Quantity kind: pKd

Consider the worked cases shown below.
> print(dat)
                         binder  recorded.measurement
1    RKPKPSSSCC [RAB9A, P51151]                   3.9
2  DDENIRTSDV [PLEKHA2, Q9HB19]   below the threshold
3  SAKVRTVTSV [RASL11B, Q9BPW5]   below the threshold
4     SARSRLSSNL [HCN2, Q9UL51]   below the threshold

Item LKVPPEERLI [CRB2, Q5IJ48] has what recorded pKd?
below the threshold

Which pKd value belongs to TKGPRGPTRV [SAPCD1, Q5SSQ6] ?
below the threshold

Could you share which pKd value was measured for YYKRPVQEWV [MMP24, Q9Y5R2] ?
3.63
